biological target: T1, Human EphA2 (Ecto) (Human, UniProt P29317 24-537); experiment: FP competition; competitor Compound 18
T1 construct: extracellular domain
T1 sequence (P29317 24-537): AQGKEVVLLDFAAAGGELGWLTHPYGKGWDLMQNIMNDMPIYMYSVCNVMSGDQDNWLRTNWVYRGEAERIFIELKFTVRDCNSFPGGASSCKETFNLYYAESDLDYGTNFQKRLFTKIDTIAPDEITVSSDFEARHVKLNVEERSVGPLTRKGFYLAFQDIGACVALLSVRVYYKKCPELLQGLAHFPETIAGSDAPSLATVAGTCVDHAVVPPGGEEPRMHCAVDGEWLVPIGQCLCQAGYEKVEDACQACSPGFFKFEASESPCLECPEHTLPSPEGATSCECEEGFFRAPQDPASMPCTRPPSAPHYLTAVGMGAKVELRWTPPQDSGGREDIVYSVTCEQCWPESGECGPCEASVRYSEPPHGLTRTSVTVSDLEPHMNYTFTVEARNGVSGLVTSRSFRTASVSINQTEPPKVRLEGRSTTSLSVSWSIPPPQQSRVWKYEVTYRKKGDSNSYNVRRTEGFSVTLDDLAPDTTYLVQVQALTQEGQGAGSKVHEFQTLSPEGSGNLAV
pKi: −log10 of the molar value. Numbered stars: 1 amine (or outer) side, 2 acyl side, 3 side chain; on linkers, the order of the positions; unused ones are H or OH. Bridge positions count the residues as written; N and C are the ends. Square brackets hold non-standard residues; d marks the D form. Ends that are not written are not given here. 1Nal = N[C@@H](Cc1cccc2ccccc12)C(=O)O; TBMB = c1c(C[*:1])cc(C[*:3])cc1C[*:2]; hArg = N=C(N)NCCCC[C@H](N)C(=O)O; Tle = CC(C)(C)[C@H](N)C(=O)O; Aib = CC(C)(N)C(=O)O; Sar = CNCC(=O)O
MEASURE NAME: pKi

// below: answered binders
>>> print(df.to_string())
                                     binder  test_result
0  Ac-[Sar][Sar]A[dD]DVTCP[1Nal]G[Aib]FWCP[Tle]N[hArg]PGC (linker 8-15-22 via TBMB) [Compound 284]         8.42
1  [Sar][Sar]AH[dE]VPCPWGPFWCPVNRPGC (linker 8-15-22 via TBMB) [Compound 208]         8.70

1 = Ac-[Sar][Sar]A[dD]VTCPWG[Aib]F[1Nal]CPVNR[Aib]GC (linker 7-14-21 via TBMB) [Compound 179]
2 = [Sar][Sar]ACP[1Nal]GPFWCP[Tle][dA]RPGC (linker 4-11-18 via TBMB) [Compound 129]
// query // returns 1 or 2 , whichever has the lower pKi State your choice using its label.
// result 2
(2: 7.64, 1: 8.53)
